system: HepG2-NTCPsec+ cells; assay: Cell viability by automated nuclei counting; assay type: cell-based, human; conditions: hit confirmation DRC, 10-point serial dilutions starting at 25 μM
MEASUREMENT NAME: CC50

[[record]]
query_smiles = "CN1c2cc3c(cc2N=C(c2ccc(C(=O)O)cc2)c2ccccc21)C(C)(C)CCC3(C)C"
target = "HepG2-NTCPsec+ cells"
reported = "> 25 µM"


Kindly note the recorded CC50 for "CC(C)(C)c1cc(C(=O)/C=C/c2ccc(C(=O)O)cc2)cc(C(C)(C)C)c1" , which is > 25 µM

----------
Overview of recorded Emax for various compounds
tested on: HBV; experiment: microbe, parasite or virus in culture; format: cell-based, hepatitis B virus genotype D; settings: Hepatitis B virus, read-out: %Imax
Express your answer in %, writing the number without its unit.

Check out these entries, answers already filled in.
[[record]]
compound = "Cc1c(C(=O)NN2CCCCC2)nn(-c2ccc(Cl)cc2Cl)c1-c1ccc(Cl)cc1 [Rimonabant]"
reported = 99.4

[[record]]
compound = "Cc1nc2ccc(CN(C)c3ccc(C(=O)N[C@@H](CCC(=O)O)C(=O)O)s3)cc2c(=O)[nH]1 [Raltitrexed]"
reported = 93.7

[[record]]
compound = "CCC(C)(C)C(=O)O[C@H]1C[C@@H](C)C=C2C=C[C@H](C)[C@H](CC[C@@H]3C[C@@H](O)CC(=O)O3)[C@H]21 [Simvastatin]"
reported = 99.9


Kindly note the recorded Emax for CC[C@H](C)C(=O)O[C@H]1CCC=C2C=C[C@H](C)[C@H](CC[C@@H]3C[C@@H](O)CC(=O)O3)[C@H]21 [Mevastatin] , which is 101

Kindly note the recorded Emax for CC[C@@H]([C@H](C)O)n1ncn(-c2ccc(N3CCN(c4ccc(OC[C@@H]5CO[C@@](Cn6cncn6)(c6ccc(F)cc6F)C5)cc4)CC3)cc2)c1=O [Posaconazole] , which is 96.4

----------
system: HBV; assay: microbe, parasite or virus in culture; assay type: cell-based, hepatitis B virus genotype D; conditions: read-out: EC50, p2 infection (after supernatant transfer); p2 cells
pEC50: −log10 of the molar value.
MEASUREMENT NAME: pEC50

Kindly note the recorded pEC50 for "O=C(CN(c1cc(C(F)(F)F)ccc1Cl)S(=O)(=O)c1ccccc1)NCc1ccncc1" , which is ~5.10

----------
Overview of recorded Emax for various molecules
system: HBV; assay: microbe, parasite or virus in culture; assay type: cell-based, hepatitis B virus genotype D; settings: Hepatitis B virus, read-out: %Imax
Express your answer in %, writing the number without its unit.

Check out these entries, answers already filled in.
[[record]]
molecule = "C#CCC(Cc1cnc2nc(N)nc(N)c2n1)c1ccc(C(=O)N[C@@H](CCC(=O)O)C(=O)O)cc1 (some centres unmarked) [Pralatrexate]"
measurement_name = "Emax"
reported = 102

[[record]]
molecule = "CC(C)OC(=O)[C@H](C)N[P@](=O)(CO[C@H](C)Cn1cnc2c(N)ncnc21)Oc1ccccc1"
measurement_name = "Emax"
reported = 99.4

[[record]]
molecule = "O=C(O)P(=O)(O)O"
measurement_name = "Emax"
reported = 94.2

[[record]]
molecule = "O=c1[nH]c(=O)n([C@H]2C[C@H](O)[C@@H](CO)O2)cc1F"
measurement_name = "Emax"
reported = 97.6

[[record]]
molecule = "Nc1ncn([C@H]2C[C@H](O)[C@@H](CO)O2)c(=O)n1"
measurement_name = "Emax"
reported = 91.9


Kindly note the recorded Emax for "CC[C@]1(O)C[C@H]2CN(CCc3c([nH]c4ccccc34)[C@@](C(=O)OC)(c3cc4c(cc3OC)N(C=O)[C@H]3[C@@](O)(C(=O)OC)[C@H](OC(C)=O)[C@]5(CC)C=CCN6CC[C@]43[C@@H]65)C2)C1" , which is 96.9

Kindly note the recorded Emax for "COC(=O)Nc1nc2ccc(C(=O)c3cccs3)cc2[nH]1" , which is 91.8

Kindly note the recorded Emax for "C=C1[C@H](CO)[C@@H](O)C[C@@H]1n1cnc2c(=O)[nH]c(N)nc21" , which is 96.7

These measurements were taken from paper PMC8243515.
